B1: TMEM120A (parent)
chain: YQSFVQFLQYYYQSGCLYRLRALG

# Variants of: B1
# assay_notes: protein stability index of a GFP-peptide fusion (GPS, HEK-293T) (PSI 1-6); higher = more stable;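 note: lentivirally expressed fusions sorted by FACS into six bins by GFP to DsRed ratio, PSI derived from sequencing read proportions per bin multiplied by bin number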
# setup_conditions: c terminus: a fixed tail appended
Grouping key: protein stability index. Bins: low interval: < 2; middle interval: ≥ 2 and < 3; high interval: ≥ 3

Given F4W , name the class its protein stability index places it in.
middle interval

Given Q6G , name the class its protein stability index places it in.
high interval

Given L17W , name the class its protein stability index places it in.
high interval

Given F7Y , name the class its protein stability index places it in.
high interval

Given S3T , name the class its protein stability index places it in.
middle interval

Given G24Q , name the class its protein stability index places it in.
high interval

Given R21F , name the class its protein stability index places it in.
low interval

Given S14Q , name the class its protein stability index places it in.
middle interval

Given G15L , name the class its protein stability index places it in.
high interval

Given S3N , name the class its protein stability index places it in.
middle interval

Given Q6D , name the class its protein stability index places it in.
high interval

Given F4A , name the class its protein stability index places it in.
high interval

Given Y12C , name the class its protein stability index places it in.
high interval

Given Y10S , name the class its protein stability index places it in.
middle interval

Given Y1M , name the class its protein stability index places it in.
middle interval

Given R21D , name the class its protein stability index places it in.
middle interval

Given L8C , name the class its protein stability index places it in.
middle interval

Given Y12F , name the class its protein stability index places it in.
middle interval

Given L8D , name the class its protein stability index places it in.
low interval

Given Y12R , name the class its protein stability index places it in.
middle interval

Given Q2S , name the class its protein stability index places it in.
middle interval

Given C16N , name the class its protein stability index places it in.
low interval

Given F4T , name the class its protein stability index places it in.
high interval

Given Q2Y , name the class its protein stability index places it in.
low interval

Given Y12T , name the class its protein stability index places it in.
middle interval

Given Y1K , name the class its protein stability index places it in.
middle interval

Given Y18L , name the class its protein stability index places it in.
high interval

Given L17M , name the class its protein stability index places it in.
middle interval

Given L23P , name the class its protein stability index places it in.
middle interval

Given L20R , name the class its protein stability index places it in.
low interval

Given F4P , name the class its protein stability index places it in.
middle interval

Given R21Q , name the class its protein stability index places it in.
middle interval

Given R19A , name the class its protein stability index places it in.
middle interval

Given R19P , name the class its protein stability index places it in.
middle interval

Given Y10I , name the class its protein stability index places it in.
high interval

Given Q6R , name the class its protein stability index places it in.
middle interval

Given Q2L , name the class its protein stability index places it in.
high interval

Given G24A , name the class its protein stability index places it in.
low interval

Given Y12K , name the class its protein stability index places it in.
low interval

Given R19G , name the class its protein stability index places it in.
low interval

Given Y18N , name the class its protein stability index places it in.
low interval
